- measured.on: HPK1 protein (Mus musculus)
- Construct: the CD3+ T cell population was isolated from spleenocytes of mice; endogenous in cells; host or cells: primary mouse splenic CD3+ (pan) T cells
- Sequence (P70218 whole entry): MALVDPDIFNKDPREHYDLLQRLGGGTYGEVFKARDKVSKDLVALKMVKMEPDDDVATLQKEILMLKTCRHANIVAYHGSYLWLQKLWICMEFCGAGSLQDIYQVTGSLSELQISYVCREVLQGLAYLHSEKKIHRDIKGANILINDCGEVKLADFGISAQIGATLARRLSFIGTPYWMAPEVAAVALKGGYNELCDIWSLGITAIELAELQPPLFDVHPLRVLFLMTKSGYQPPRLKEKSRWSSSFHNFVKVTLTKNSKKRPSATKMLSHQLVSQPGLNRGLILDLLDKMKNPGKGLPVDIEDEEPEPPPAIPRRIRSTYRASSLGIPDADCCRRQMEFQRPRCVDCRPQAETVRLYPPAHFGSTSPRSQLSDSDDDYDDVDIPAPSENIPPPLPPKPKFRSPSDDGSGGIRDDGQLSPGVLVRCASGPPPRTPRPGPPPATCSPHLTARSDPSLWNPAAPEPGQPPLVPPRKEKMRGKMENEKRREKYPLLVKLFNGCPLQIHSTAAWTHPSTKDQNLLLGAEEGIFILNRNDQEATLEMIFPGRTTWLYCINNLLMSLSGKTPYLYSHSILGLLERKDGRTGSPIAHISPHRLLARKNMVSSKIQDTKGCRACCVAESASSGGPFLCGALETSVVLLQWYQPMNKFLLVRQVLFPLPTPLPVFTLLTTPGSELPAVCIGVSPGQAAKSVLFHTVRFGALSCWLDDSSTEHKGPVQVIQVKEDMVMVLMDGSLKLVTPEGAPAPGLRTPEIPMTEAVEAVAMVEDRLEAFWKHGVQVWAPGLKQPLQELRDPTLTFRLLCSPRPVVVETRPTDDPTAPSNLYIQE
- test.details: HPK1 protein degradation in mouse pan T cell (western blot)
- Format: cell-based
- reported.conditions: 18 h incubation
metric.name: Dmax (%)
Write the answer as a number in %, unit excluded.

These solved cases illustrate the format of a correct answer.
[[record]]
compound = "CCc1c[nH]c2ncc(-c3cccc(N4CCN(CCCN5CCC(c6ccc7c(N8CCC(=O)NC8=O)cccc7c6)CC5)CC4=O)c3)c(Cl)c12"
unit_annotation = "%"
value_reported = 90

[[record]]
compound = "O=C1CCC(N2C(=O)c3cc(F)c(N4CCC(CCN5CCN(c6cccc(-c7cnc8[nH]cc(CC(F)F)c8c7Cl)c6)C(=O)C5)CC4)cc3C2=O)C(=O)N1 (stereo not drawn)"
unit_annotation = "%"
value_reported = 95


In the following, a different compound is considered.
-- ask Need Dmax, item CCc1c[nH]c2ncc(-c3cccc(N4CCN(CCCN5CCN(c6ccc7c(N8CCC(=O)NC8=O)cccc7c6)CC5)CC4=O)c3)c(Cl)c12
-- reply 95
